These measurements were taken from patent US5633009A.

Experiment: clinical
Conditions: human, in vivo, topical or ocular
readout_type: Cmax (ng/mL)
Numbers only, in ng/mL.

Lab note: measured Cmax of `O=C1CC2(CCCC2)CC(=O)N1CCCCN1CCN(c2ncccn2)CC1` was 0.79

* * *

Experiment: clinical
Conditions: human, in vivo, topical or ocular
readout_type: Tmax (h)
One number for each entry, in h.

Form: molecule = O=C1CC2(CCCC2)CC(=O)N1CCCCN1CCN(c2ncccn2)CC1 [buspirone] ; Tmax = 16.5

* * *

Assay: clinical
Conditions: human, in vivo, topical or ocular
readout_type: AUC (ng·h/mL)
One number for each entry, in ng·h/mL.

response.value for `O=C1CC2(CCCC2)CC(=O)N1CCCCN1CCN(c2ncccn2)CC1` (field: AUC) = 12.7
